Reported values of HPLC elution for individual entries
Run Description: Analytical reversed-phase HPLC elution (hydrophobicity)
Assay type: physicochemical
Test Parameters: Table S1; analytical RP-HPLC, SunFire C18, water/ACN + 0.1% TFA, 5 to 100% B linear over 30 min, 1 mL/min, UV 220 nm; approximate comparison of hydrophobicity
Square brackets hold non-standard residues; d marks the D form. Peptide text beside a SMILES is read from it. Gly(N(CH2)2(3-indolyl)) = O=C(O)CNCCc1c[nH]c2ccccc12; Nspe = C[C@H](NCC(=O)O)c1ccccc1; Nphe = O=C(O)CNCc1ccccc1; Nlys = NCCCCNCC(=O)O
Answer with a number only, understood to be in % MeCN.

Example entries and their recorded answers appear below.
>  <Molecule>
C[C@@H](c1ccccc1)N(CC(N)=O)C(=O)CN(C(=O)CN(CCCCN)C(=O)CN(CCc1c[nH]c2ccccc12)C(=O)CN(CCc1c[nH]c2ccccc12)C(=O)CN(CCCCN)C(=O)CN(CCc1c[nH]c2ccccc12)C(=O)CN(CCc1c[nH]c2ccccc12)C(=O)CN(CCCCN)C(=O)CN(C(=O)CN(C(=O)CNCCCCN)[C@@H](C)c1ccccc1)[C@@H](C)c1ccccc1)[C@@H](C)c1ccccc1

>  <Reading Unit>
% MeCN

>  <Value>
52.7

$$$$
>  <Molecule>
C[C@@H](c1ccccc1)N(CC(=O)N(CCCCN)CC(=O)N(CCc1c[nH]c2ccccc12)CC(=O)N(CCc1c[nH]c2ccccc12)CC(N)=O)C(=O)CN(CCCCN)C(=O)CN(CCCCN)C(=O)CN(C(=O)CN(C(=O)CN(CCCCN)C(=O)CN(Cc1ccccc1)C(=O)CN(Cc1ccccc1)C(=O)CNCCCCN)[C@@H](C)c1ccccc1)[C@@H](C)c1ccccc1 [peptoid 41] (H-[Nlys][Nphe][Nphe][Nlys][Nspe][Nspe][Nlys][Nlys][Nspe][Nlys][Gly(N(CH2)2(3-indolyl))][Gly(N(CH2)2(3-indolyl))]-NH2)

>  <Reading Unit>
% MeCN

>  <Value>
47.5

$$$$
>  <Molecule>
C[C@H](NCC(=O)N(CCCCN)CC(=O)N(CC(=O)N(CC(=O)N(CCCCN)CC(=O)N(CCCCN)CC(=O)N(CC(=O)N(CCCCN)CC(=O)N(CC(=O)N(CC(=O)N(CCCCN)CC(=O)N(CC(N)=O)[C@@H](C)c1ccccc1)[C@@H](C)c1ccccc1)[C@@H](C)c1ccccc1)[C@@H](C)c1ccccc1)[C@@H](C)c1ccccc1)[C@@H](C)c1ccccc1)c1ccccc1 [peptoid 55] (H-[Nspe][Nlys][Nspe][Nspe][Nlys][Nlys][Nspe][Nlys][Nspe][Nspe][Nlys][Nspe]-NH2)

>  <Reading Unit>
% MeCN

>  <Value>
47.2

$$$$
>  <Molecule>
C[C@@H](c1ccccc1)N(CC(N)=O)C(=O)CN(CCCCN)C(=O)CN(C(=O)CN(C(=O)CN(CCCCN)C(=O)CN(C(=O)CN(CCCCN)C(=O)CN(CCCCN)C(=O)CN(C(=O)CN(C(=O)CN(CCCCN)C(=O)CN(C(=O)CNCCc1c[nH]c2ccccc12)[C@@H](C)c1ccccc1)[C@@H](C)c1ccccc1)[C@@H](C)c1ccccc1)[C@@H](C)c1ccccc1)[C@@H](C)c1ccccc1)[C@@H](C)c1ccccc1

>  <Reading Unit>
% MeCN

>  <Value>
49.9

$$$$

Next up:
Input line: Identify the reported HPLC elution for the following entry. C[C@@H](c1ccccc1)N(CC(N)=O)C(=O)CN(C(=O)CN(CCCCN)C(=O)CN(CCc1c[nH]c2ccccc12)C(=O)CN(CCc1c[nH]c2ccccc12)C(=O)CN(CCCCN)C(=O)CN(C(=O)CN(C(=O)CN(CCCCN)C(=O)CN(C(=O)CN(C(=O)CNCCCCN)[C@@H](C)c1ccccc1)[C@@H](C)c1ccccc1)[C@@H](C)c1ccccc1)[C@@H](C)c1ccccc1)[C@@H](C)c1ccccc1
Output line: 55.9
